Protocol notes: Peptide secondary structure by ATR-FTIR in the absence or presence of heparin
Assay type: physicochemical
Measurement parameters: ATR-FTIR, 1659 cm^-1; peptide alone, 100 µM in PBS
Record form. Attribute: Percentage of structural elements: α-Helix. Fill in for each entry.
One number for each entry, in %.

# return Percentage of structural elements: α-Helix for each item in the list
1. RRRWRRWRR [aR7W2]
2. RWWWWRRRR [nR5W4]

Result:
1: 25; 2: 26

###

Protocol notes: Peptide binding to heparin studied by ITC
Measurement parameters: heparin into peptide, PBS, one site model, average of two experiments
Record form. Attribute: TΔS. Fill in for each entry.
I'd appreciate it if you included the unit after the number.

Recorded results for 5 sequences are shown here.
{"Biosequence": "RRRRRRRRW [Peptide R8W1-2]", "TΔS": "-82.0 kcal/mol"}
{"Biosequence": "RRWRRRRWW [nR6W3]", "TΔS": "-113.0 kcal/mol"}
{"Biosequence": "RRWWRRWRR [aR6W3]", "TΔS": "-105.6 kcal/mol"}
{"Biosequence": "RRRRWRRRR [Peptide R8W1-1]", "TΔS": "-71.5 kcal/mol"}
{"Biosequence": "RRRWRRWRR [aR7W2]", "TΔS": "-86.3 kcal/mol"}

# return TΔS for each item in the list
1. RRDWDWRRDWRR [Peptide R6DW3]
2. RWRWRRRRR [nR7W2]

Result:
["-80.5 kcal/mol", "-82.9 kcal/mol"]

###

Protocol notes: Peptide secondary structure by ATR-FTIR in the absence or presence of heparin
Format: physicochemical
Measurement parameters: ATR-FTIR amide I deconvolution, 1627 cm^-1; peptide alone, 100 µM in PBS
Lab note: cut-off is 20%. Strictly less in Percentage of structural elements: β-strand is YES. Exactly 20% or more is NO.

Solved cases below.
{"Biosequence": "RWWWWRRRR [nR5W4]", "Category": "YES"}
{"Biosequence": "RRWWRRWRR [aR6W3]", "Category": "YES"}

Q: Please check: Percentage of structural elements: β-strand for RRRWRRWRR [aR7W2] , strictly under 20% or not?
Result: NO

Q: Another sequence: RRWWRRWWR [aR5W4]
Result: YES

Q: Another sequence: RRWRRRRWW [nR6W3]
Result: NO

###

Protocol notes: Peptide binding to heparin studied by ITC
Measurement parameters: heparin into peptide, PBS, one site model, average of two experiments
Lab note: cut-off is -90 kcal/mol. Strictly less in ΔH is t. Exactly -90 kcal/mol or more is f.

Solved cases below.
{"Biosequence": "RRWWRRWRR [aR6W3]", "Category": "t"}
{"Biosequence": "RWWWWRRRR [nR5W4]", "Category": "t"}
{"Biosequence": "RRWWRRWWR [aR5W4]", "Category": "t"}
{"Biosequence": "RRRRRRRRR [Peptide R9]", "Category": "f"}
{"Biosequence": "RRRWRRWRR [aR7W2]", "Category": "t"}
{"Biosequence": "RRRRWRRRR [Peptide R8W1-1]", "Category": "f"}
{"Biosequence": "RWRWRRRRR [nR7W2]", "Category": "t"}

Let us examine a further case.
Q: Please check: ΔH for RRWRRRRWW [nR6W3] , strictly under -90 kcal/mol or not?
Result: t
